- systemTested: Rho kinase 2 (ROCK2) (Homo sapiens)
pKi: −log10 of the molar value.
Measured pKi accompanies every entry in the list below.

Below are worked cases with known answers.
molecule: Nc1nccc(-c2cnc(NCc3ccccc3)c3c2OCC3)n1 [Example C, reference compound]
pKi: 7.52 to 8.52
//
molecule: CN(C)CCNc1ccc(NC(=O)c2cccc(CNc3ncc(-c4ccnc(N)n4)c4c3CCO4)c2)nc1
pKi: ≥ 8.52

Now, please, on to the next molecule.
Input line: Find pKi for `CNCc1ccc(NC(=O)c2cccc(CNc3ncc(-c4ccnc(N)n4)c4c3CCO4)c2)nc1` on Rho kinase 2 (ROCK2) (Homo sapiens) and write it down.
Output line: ≥ 8.52

====

- systemTested: Rho kinase 2 (ROCK2) (Homo sapiens, UniProt O75116)
- Sequence (O75116 whole entry): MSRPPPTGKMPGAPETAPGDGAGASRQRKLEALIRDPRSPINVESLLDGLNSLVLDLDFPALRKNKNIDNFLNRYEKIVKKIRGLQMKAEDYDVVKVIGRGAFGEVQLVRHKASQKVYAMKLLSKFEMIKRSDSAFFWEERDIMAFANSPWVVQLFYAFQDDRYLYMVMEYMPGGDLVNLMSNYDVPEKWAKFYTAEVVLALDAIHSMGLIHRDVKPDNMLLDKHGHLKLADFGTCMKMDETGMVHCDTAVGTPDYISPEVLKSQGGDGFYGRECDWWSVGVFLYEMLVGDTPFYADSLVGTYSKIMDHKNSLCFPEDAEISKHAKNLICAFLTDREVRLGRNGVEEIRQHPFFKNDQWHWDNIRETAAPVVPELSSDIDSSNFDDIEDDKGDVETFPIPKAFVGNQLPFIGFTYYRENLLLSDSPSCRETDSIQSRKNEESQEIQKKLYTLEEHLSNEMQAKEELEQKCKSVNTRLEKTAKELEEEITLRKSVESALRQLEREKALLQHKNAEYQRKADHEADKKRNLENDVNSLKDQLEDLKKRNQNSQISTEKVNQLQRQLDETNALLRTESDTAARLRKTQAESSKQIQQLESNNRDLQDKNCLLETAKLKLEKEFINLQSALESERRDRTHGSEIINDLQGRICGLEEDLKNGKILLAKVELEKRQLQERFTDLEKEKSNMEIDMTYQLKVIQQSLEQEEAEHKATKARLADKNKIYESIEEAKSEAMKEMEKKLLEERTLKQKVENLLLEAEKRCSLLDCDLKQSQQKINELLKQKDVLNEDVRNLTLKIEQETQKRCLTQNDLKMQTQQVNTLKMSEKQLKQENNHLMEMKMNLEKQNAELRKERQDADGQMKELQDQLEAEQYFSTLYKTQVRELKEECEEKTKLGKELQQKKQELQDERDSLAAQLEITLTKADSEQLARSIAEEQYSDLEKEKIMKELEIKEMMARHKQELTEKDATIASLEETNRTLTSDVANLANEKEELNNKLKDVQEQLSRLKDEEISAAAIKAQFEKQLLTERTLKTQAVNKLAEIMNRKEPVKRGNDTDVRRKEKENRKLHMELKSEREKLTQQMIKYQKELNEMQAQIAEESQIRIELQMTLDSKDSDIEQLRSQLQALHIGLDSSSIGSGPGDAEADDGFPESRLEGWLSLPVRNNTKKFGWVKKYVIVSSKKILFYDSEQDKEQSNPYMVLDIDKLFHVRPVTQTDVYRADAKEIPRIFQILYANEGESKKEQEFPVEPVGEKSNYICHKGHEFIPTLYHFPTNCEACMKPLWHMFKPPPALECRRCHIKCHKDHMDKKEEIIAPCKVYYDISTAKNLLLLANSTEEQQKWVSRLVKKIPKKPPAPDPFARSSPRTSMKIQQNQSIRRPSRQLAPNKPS
- protocolDetails: In vitro inhibitory activity assay ROCK2 (ADP-Glo)
- Type: biochemical
- experimentalParameters: ATP 200 μM, Cheng-Prusoff from IC50; read-out: ROCK2 (Ki, range of activity)
Ki reference

Some solved cases for reference:
molecule: CNCCOc1ccc(NC(=O)c2cccc(CNc3ncc(-c4ccnc(N)n4)c4c3CCO4)c2)nc1
systemTested: Rho kinase 2 (ROCK2) (Homo sapiens, UniProt O75116)
measValue: ≤ 3 nM

molecule: Nc1nccc(-c2cnc(NCc3cccc(C(=O)Nc4ccc(OC[C@]5(F)CCNC5)cn4)c3)c3c2OCC3)n1
systemTested: Rho kinase 2 (ROCK2) (Homo sapiens, UniProt O75116)
measValue: ≤ 3 nM

Input line: # return recorded Ki for entry CNC(=O)c1cccc(CNc2ncc(-c3ccncn3)c3c2CCO3)c1 [Example A, reference compound]
Output line: > 30 nM

Input line: Determine from records and report Ki for CN1CCN(C)C(COc2ccc(NC(=O)c3cccc(CNc4ncc(-c5ccnc(N)n5)c5c4CCO5)c3)nc2)C1 (single isomer, unassigned)
Output line: ≤ 3 nM

====

Quick reference: inhibition in vivo at 0.01 mg/kg of the listed items.
- System: cch-evoked bronchoconstriction
- protocolDetails: Experimental bronchospasm (carbachol-induced bronchoconstriction, Konzett & Roessler)
- Type: in vivo, Male CD Sprague Dawley rats
- experimentalParameters: iv; rat, dose 10 μg/Kg intratracheal, 1 hour after administration, carbachol 80 μg/kg i.v.; read-out: Inhibition % (±s.e. mean) of cch-evoked bronchoconstriction
Value expressed in %; do not type the unit.

Example cases with answers are listed next.
chemicalStructure: CN1CC[C@@H]1COc1ccc(NC(=O)c2cccc(CNc3ncc(-c4ccnc(N)n4)c4c3CCO4)c2)nc1
measValue: 81.3

chemicalStructure: Nc1nccc(-c2cnc(NCc3cccc(C(=O)Nc4ccc(N5CCNCC5)cn4)c3)c3c2OCC3)n1
measValue: 70.7

chemicalStructure: CN(C)CCOc1ccc(NC(=O)c2cccc(CNc3ncc(-c4ccnc(N)n4)c4c3CCO4)c2)nc1
measValue: 51.5

Input line: Let me know recorded inhibition in vivo at 0.01 mg/kg for `CNCc1ccc(NC(=O)c2cccc(CNc3ncc(-c4ccnc(N)n4)c4c3CCO4)c2)nc1` , thanks.
Output line: 89.5

====

pKi: −log10 of the molar value.
Record set of pKi for target or system Rho kinase 2 (ROCK2) (Homo sapiens, UniProt O75116).

Answered cases to consult:
compound: CN1C[C@H]2C[C@@H]1CN2c1ccc(NC(=O)c2cccc(CNc3ncc(-c4ccnc(N)n4)c4c3CCO4)c2)nc1
metric: pKi
measValue: ≥ 8.52
//
compound: CN1CCC(C(=O)N2CCN(c3ccc(NC(=O)c4cccc(CNc5ncc(-c6ccnc(N)n6)c6c5CCO6)c4)nc3)CC2)CC1
metric: pKi
measValue: ≥ 8.52
//
compound: CNC(=O)c1cccc(CNc2ncc(-c3ccnc(N)n3)c3c2OCC3)c1 [Example B, reference compound]
metric: pKi
measValue: < 7.52

Proceeding to the next compound to report its pKi.
Input line: Supply pKi value. Item: `CNCCNc1ccc(NC(=O)c2cccc(CNc3ncc(-c4ccnc(N)n4)c4c3CCO4)c2)nc1`
Output line: ≥ 8.52
